- TARGET: T1, murine GPC3-his protein (Sino Biological, Cat. No. 50989-M08B) (murine, UniProt Q8CFZ4 25-558)
- T1 construct: Bought protein; also called murine GPC3 protein
- T1 sequence (Q8CFZ4 25-558 limits assumed): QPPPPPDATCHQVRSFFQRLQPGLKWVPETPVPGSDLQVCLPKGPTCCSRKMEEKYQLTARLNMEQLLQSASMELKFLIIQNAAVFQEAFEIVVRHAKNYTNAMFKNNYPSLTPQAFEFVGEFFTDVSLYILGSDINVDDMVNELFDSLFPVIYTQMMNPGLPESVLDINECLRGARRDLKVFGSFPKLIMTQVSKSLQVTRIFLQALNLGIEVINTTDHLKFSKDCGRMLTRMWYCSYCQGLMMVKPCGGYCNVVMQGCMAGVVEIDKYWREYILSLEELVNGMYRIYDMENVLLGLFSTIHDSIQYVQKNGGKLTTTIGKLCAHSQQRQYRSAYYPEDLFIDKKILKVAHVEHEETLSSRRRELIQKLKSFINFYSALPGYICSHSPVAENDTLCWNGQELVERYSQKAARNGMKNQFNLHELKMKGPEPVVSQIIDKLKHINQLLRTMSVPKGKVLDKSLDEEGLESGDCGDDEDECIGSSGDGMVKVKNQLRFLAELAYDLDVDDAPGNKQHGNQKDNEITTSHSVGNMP
- ASSAY_TEXT: ELISA, coated murine GPC3-His;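 note: antigen coated on plates at 1 µg/mL, test antibody bound for 2 h at 37 °C, detected with HRP-conjugated secondary antibody and TMB substrate after acid stop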
Quick reference for OD450 at 0.01 nM antibody among some binders

BINDER	OD450 at 0.01 nM antibody (OD450 nm)
F4.13.7 human-murine chimeric antibody (antibody, human IgG1, kappa, V domains shown) VH: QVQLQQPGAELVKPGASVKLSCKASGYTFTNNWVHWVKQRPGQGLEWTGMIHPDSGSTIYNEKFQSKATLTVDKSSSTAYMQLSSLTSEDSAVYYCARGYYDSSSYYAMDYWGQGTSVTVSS VL: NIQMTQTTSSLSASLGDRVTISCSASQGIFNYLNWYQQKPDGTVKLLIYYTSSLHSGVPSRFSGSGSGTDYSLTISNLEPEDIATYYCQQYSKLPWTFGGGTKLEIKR	0.54
F1.92.17 human-murine chimeric antibody (antibody, human IgG1, kappa, V domains shown) VH: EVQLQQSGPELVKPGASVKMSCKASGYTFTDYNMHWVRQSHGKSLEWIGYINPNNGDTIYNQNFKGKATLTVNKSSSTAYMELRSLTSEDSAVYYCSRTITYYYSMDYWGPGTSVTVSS VL: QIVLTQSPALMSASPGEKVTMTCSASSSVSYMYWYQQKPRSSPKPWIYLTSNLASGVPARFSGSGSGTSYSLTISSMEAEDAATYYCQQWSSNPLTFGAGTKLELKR	0.05

// data source = patent US20260116991A1
